# Test system: E. faecalis VRE 6
# ASSAY COMMENT: MIC, broth microdilution, vancomycin-resistant E. faecalis VRE 6 (VanA)
# Assay type: cell-based, Enterococcus faecalis
# MEASUREMENT PARAMETERS: Enterococcus faecalis VRE 6 (vancomycin-resistant); read-out: MIC
READOUT: MIC (µM)
Give the number; µM is assumed, so skip it.

# COMPOUND, MIC / µM
data = [
    ("C#Cc1ccc(C=Cc2ccc(NC(=O)CNC(=O)C3NC(=O)C4NC(=O)C(NC(=O)C5NC(=O)C(CC(N)=O)NC(=O)C(NC(=O)C(CC(C)C)NC)C(O)c6ccc(c(Cl)c6)Oc6cc5cc(c6OC5OC(CO)C(O)C(O)C5OC5CC(C)(N)C(O)C(C)O5)Oc5ccc(cc5Cl)C4O)c4ccc(O)c(c4)-c4c(O)cc(O)cc43)cc2)cc1 (stereo not drawn)", 3.13),
]

# input for lookup
Record `CN[C@H](CC(C)C)C(=O)N[C@H]1C(=O)N[C@@H](CC(N)=O)C(=O)N[C@H]2C(=O)N[C@H]3C(=O)N[C@H](C(=O)N[C@H](C(=O)NCC(=O)Nc4ccc(NS(=O)(=O)c5ccccc5)cc4)c4cc(O)cc(O)c4-c4cc3ccc4O)[C@H](O)c3ccc(c(Cl)c3)Oc3cc2cc(c3O[C@@H]2O[C@H](CO)[C@@H](O)[C@H](O)[C@H]2O[C@H]2C[C@](C)(N)[C@H](O)[C@H](C)O2)Oc2ccc(cc2Cl)[C@H]1O` . Reported MIC: 12.5

* * *

# System: E. faecalis VRE 53
# ASSAY COMMENT: MIC, broth microdilution, vancomycin-resistant E. faecalis VRE 53 (VanA)
# Type: cell-based, Enterococcus faecalis
# MEASUREMENT PARAMETERS: Enterococcus faecalis VRE 53 (vancomycin-resistant); read-out: MIC
READOUT: log10(MIC) (log10 of the value in µM)
Note: values are log10 of MIC expressed in µM.

Record CNC(CC(C)C)C(=O)NC1C(=O)NC(CC(N)=O)C(=O)NC2C(=O)NC3C(=O)NC(C(=O)NC(C(=O)NCCCNC(=O)c4ccc5cc(OC)ccc5c4)c4cc(O)cc(O)c4-c4cc3ccc4O)C(O)c3ccc(c(Cl)c3)Oc3cc2cc(c3OC2OC(CO)C(O)C(O)C2OC2CC(C)(N)C(O)C(C)O2)Oc2ccc(cc2Cl)C1O (centres unmarked) [Vanc-29] . Reported log10(MIC): 1.40

Record CN[C@H](CC(C)C)C(=O)N[C@H]1C(=O)N[C@@H](CC(N)=O)C(=O)N[C@H]2C(=O)N[C@H]3C(=O)N[C@H](C(=O)N[C@H](C(=O)NCC(=O)Nc4ccc5cc6ccccc6cc5c4)c4cc(O)cc(O)c4-c4cc3ccc4O)[C@H](O)c3ccc(c(Cl)c3)Oc3cc2cc(c3O[C@@H]2O[C@H](CO)[C@@H](O)[C@H](O)[C@H]2O[C@H]2C[C@](C)(N)[C@H](O)[C@H](C)O2)Oc2ccc(cc2Cl)[C@H]1O [Vanc-59] . Reported log10(MIC): 1.10

Record CN(C)c1cc(NC(=O)CNC(C)(C)C)c(O)c2c1C[C@H]1C[C@H]3[C@H](N(C)C)C(O)=C(C(N)=O)C(=O)[C@@]3(O)C(O)=C1C2=O [Tigecycline, reference compound] . Reported log10(MIC): 0.50

Record CN[C@H](CC(C)C)C(=O)N[C@H]1C(=O)N[C@@H](CC(N)=O)C(=O)N[C@H]2C(=O)N[C@H]3C(=O)N[C@H](C(=O)N[C@H](C(=O)NCC(=O)Nc4c(C)cc(C)cc4C)c4cc(O)cc(O)c4-c4cc3ccc4O)[C@H](O)c3ccc(c(Cl)c3)Oc3cc2cc(c3O[C@@H]2O[C@H](CO)[C@@H](O)[C@H](O)[C@H]2O[C@H]2C[C@](C)(N)[C@H](O)[C@H](C)O2)Oc2ccc(cc2Cl)[C@H]1O [Vanc-9] . Reported log10(MIC): 1.40

Record CN[C@H](CC(C)C)C(=O)N[C@H]1C(=O)N[C@@H](CC(N)=O)C(=O)N[C@H]2C(=O)N[C@H]3C(=O)N[C@H](C(=O)N[C@H](C(=O)NCCNC(=O)CC(c4ccccc4)c4ccccc4)c4cc(O)cc(O)c4-c4cc3ccc4O)[C@H](O)c3ccc(c(Cl)c3)Oc3cc2cc(c3O[C@@H]2O[C@H](CO)[C@@H](O)[C@H](O)[C@H]2O[C@H]2C[C@](C)(N)[C@H](O)[C@H](C)O2)Oc2ccc(cc2Cl)[C@H]1O [Vanc-47] . Reported log10(MIC): 1.70

Record CNC(CC(C)C)C(=O)NC1C(=O)NC(CC(N)=O)C(=O)NC2C(=O)NC3C(=O)NC(C(=O)NC(C(=O)NCC(=O)Nc4ccc(-c5cn(-c6ccc(OC)cc6)nn5)cc4)c4cc(O)cc(O)c4-c4cc3ccc4O)C(O)c3ccc(c(Cl)c3)Oc3cc2cc(c3OC2OC(CO)C(O)C(O)C2OC2CC(C)(N)C(O)C(C)O2)Oc2ccc(cc2Cl)C1O (centres unmarked) [Vanc-72] . Reported log10(MIC): 0.80

Record CCCCCc1ccc(C(=O)NCCCNC(=O)C2NC(=O)C3NC(=O)C(NC(=O)C4NC(=O)C(CC(N)=O)NC(=O)C(NC(=O)C(CC(C)C)NC)C(O)c5ccc(c(Cl)c5)Oc5cc4cc(c5OC4OC(CO)C(O)C(O)C4OC4CC(C)(N)C(O)C(C)O4)Oc4ccc(cc4Cl)C3O)c3ccc(O)c(c3)-c3c(O)cc(O)cc32)cc1 (centres unmarked) [Vanc-49] . Reported log10(MIC): 0.80

Record CNC(CC(C)C)C(=O)NC1C(=O)NC(CC(N)=O)C(=O)NC2C(=O)NC3C(=O)NC(C(=O)NC(C(=O)NCCNC(=O)C4c5ccccc5-c5ccccc54)c4cc(O)cc(O)c4-c4cc3ccc4O)C(O)c3ccc(c(Cl)c3)Oc3cc2cc(c3OC2OC(CO)C(O)C(O)C2OC2CC(C)(N)C(O)C(C)O2)Oc2ccc(cc2Cl)C1O (centres unmarked) [Vanc-46] . Reported log10(MIC): 1.40

Record CNC(CC(C)C)C(=O)NC1C(=O)NC(CC(N)=O)C(=O)NC2C(=O)NC3C(=O)NC(C(=O)NC(C(=O)NCC(=O)Nc4cccc(OC)c4)c4cc(O)cc(O)c4-c4cc3ccc4O)C(O)c3ccc(c(Cl)c3)Oc3cc2cc(c3OC2OC(CO)C(O)C(O)C2OC2CC(C)(N)C(O)C(C)O2)Oc2ccc(cc2Cl)C1O (centres unmarked) [Vanc-12] . Reported log10(MIC): 1.10

Record CN[C@H](CC(C)C)C(=O)N[C@H]1C(=O)N[C@@H](CC(N)=O)C(=O)N[C@H]2C(=O)N[C@H]3C(=O)N[C@H](C(=O)N[C@H](C(=O)NCC(=O)Nc4ccc([N+](=O)[O-])cc4)c4cc(O)cc(O)c4-c4cc3ccc4O)[C@H](O)c3ccc(c(Cl)c3)Oc3cc2cc(c3O[C@@H]2O[C@H](CO)[C@@H](O)[C@H](O)[C@H]2O[C@H]2C[C@](C)(N)[C@H](O)[C@H](C)O2)Oc2ccc(cc2Cl)[C@H]1O [Vanc-67] . Reported log10(MIC): 1.40

Record CN[C@H](CC(C)C)C(=O)N[C@H]1C(=O)N[C@@H](CC(N)=O)C(=O)N[C@H]2C(=O)N[C@H]3C(=O)N[C@H](C(=O)N[C@H](C(=O)NCC(=O)Nc4ccc(C)cc4Cl)c4cc(O)cc(O)c4-c4cc3ccc4O)[C@H](O)c3ccc(c(Cl)c3)Oc3cc2cc(c3O[C@@H]2O[C@H](CO)[C@@H](O)[C@H](O)[C@H]2O[C@H]2C[C@](C)(N)[C@H](O)[C@H](C)O2)Oc2ccc(cc2Cl)[C@H]1O [Vanc-2] . Reported log10(MIC): 1.40

* * *

# System: Clostridium difficile AIU ribotype 027
# ASSAY COMMENT: MIC, plate drop assay, C. difficile AIU ribotype 027
# Format: cell-based
# MEASUREMENT PARAMETERS: C. difficile AIU ribotype 027, plate drop assay
READOUT: MIC

# COMPOUND, MEASUREMENT TARGET, MIC
data = [
    ("CN[C@H](CC(C)C)C(=O)N[C@H]1C(=O)N[C@@H](CC(N)=O)C(=O)N[C@H]2C(=O)N[C@H]3C(=O)N[C@H](C(=O)N[C@H](C(=O)NCC(=O)Nc4ccc5c(c4)Cc4ccccc4-5)c4cc(O)cc(O)c4-c4cc3ccc4O)[C@H](O)c3ccc(c(Cl)c3)Oc3cc2cc(c3O[C@@H]2O[C@H](CO)[C@@H](O)[C@H](O)[C@H]2O[C@H]2C[C@](C)(N)[C@H](O)[C@H](C)O2)Oc2ccc(cc2Cl)[C@H]1O", "Clostridium difficile AIU ribotype 027", "0.78 µM"),
    ("CNC(CC(C)C)C(=O)NC1C(=O)NC(CC(N)=O)C(=O)NC2C(=O)NC3C(=O)NC(C(=O)NC(C(=O)NCCCNC(=O)c4ccc5cc(NS(=O)(=O)c6ccc(C(C)C)cc6)ccc5c4)c4cc(O)cc(O)c4-c4cc3ccc4O)C(O)c3ccc(c(Cl)c3)Oc3cc2cc(c3OC2OC(CO)C(O)C(O)C2OC2CC(C)(N)C(O)C(C)O2)Oc2ccc(cc2Cl)C1O (stereo not drawn)", "Clostridium difficile AIU ribotype 027", "0.78 µM"),
]

# input for lookup
Record `CN[C@H](CC(C)C)C(=O)N[C@H]1C(=O)N[C@@H](CC(N)=O)C(=O)N[C@H]2C(=O)N[C@H]3C(=O)N[C@H](C(=O)N[C@H](C(=O)NCC(=O)Nc4ccc(C)cc4)c4cc(O)cc(O)c4-c4cc3ccc4O)[C@H](O)c3ccc(c(Cl)c3)Oc3cc2cc(c3O[C@@H]2O[C@H](CO)[C@@H](O)[C@H](O)[C@H]2O[C@H]2C[C@](C)(N)[C@H](O)[C@H](C)O2)Oc2ccc(cc2Cl)[C@H]1O` . Reported MIC: >25 µM
